Catalogue of binders with associated pKd
- target-system: T1, recombinant soluble human Seprase (rhuSeprase) (human, UniProt Q12884 29-760)
- T1 construct: range 29-760; Secreted from CHO-S cells with a mouse Ig kappa secretion signal (not part of the protein in the assay); also called recombinant human Seprase; soluble fraction of human Seprase
- T1 sequence: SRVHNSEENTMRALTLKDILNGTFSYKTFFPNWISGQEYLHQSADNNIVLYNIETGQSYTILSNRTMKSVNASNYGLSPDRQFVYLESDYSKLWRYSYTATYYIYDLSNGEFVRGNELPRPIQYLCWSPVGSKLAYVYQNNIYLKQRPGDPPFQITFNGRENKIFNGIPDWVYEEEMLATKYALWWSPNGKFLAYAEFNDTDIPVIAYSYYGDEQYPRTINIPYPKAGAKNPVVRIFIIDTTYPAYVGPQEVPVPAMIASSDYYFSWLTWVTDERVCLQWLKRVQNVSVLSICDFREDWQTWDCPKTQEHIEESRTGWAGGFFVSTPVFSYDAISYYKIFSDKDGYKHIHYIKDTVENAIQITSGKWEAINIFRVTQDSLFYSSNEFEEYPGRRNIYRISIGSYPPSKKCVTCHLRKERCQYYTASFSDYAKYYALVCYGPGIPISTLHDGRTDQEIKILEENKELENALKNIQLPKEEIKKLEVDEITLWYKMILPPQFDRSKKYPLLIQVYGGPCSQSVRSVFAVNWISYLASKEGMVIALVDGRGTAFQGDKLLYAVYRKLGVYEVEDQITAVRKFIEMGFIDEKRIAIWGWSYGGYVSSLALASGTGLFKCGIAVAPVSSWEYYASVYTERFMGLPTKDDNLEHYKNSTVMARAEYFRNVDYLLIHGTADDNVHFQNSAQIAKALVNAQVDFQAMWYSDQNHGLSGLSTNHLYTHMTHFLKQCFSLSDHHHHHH
- assay: SPR (Biacore T-100), rhuSeprase immobilized on CM5, steady state analysis, 1:1 fit
No end group written: not given here.
Kindly note that pKd refers to -log10 of the concentration in mol/L and answer with the value alone.

Consider the worked cases shown below.
[
  {
    "binder": "GSGACPYSNWTPGRGPDCSSDSDCPGACICLENGFCG (designed binder) [MO-FA-012]",
    "outcome-measure": "pKd",
    "endpoint-result": 5.94
  },
  {
    "binder": "GACPYSNWTPGRGPDCRRDSDCPGRCICRGNGYCG (designed binder, disulfide (positions not given here), it is derived from MC-FA-010 and K2A; also called MC-FA-012 (K2A); monomeric MC-FA-012 Microbody) [MC-FA-012]",
    "outcome-measure": "pKd",
    "endpoint-result": 6.61
  },
  {
    "binder": "GSGACPYSRWMPGRGPSCRRDSDCPGRCICRGNGYCG (designed binder) [FA7-A05]",
    "outcome-measure": "pKd",
    "endpoint-result": 6.99
  },
  {
    "binder": "GSGACPYTRWAVGRGPDCRRDSDCPGRCICRGNGYCG (designed binder) [FA8-D03]",
    "outcome-measure": "pKd",
    "endpoint-result": 6.82
  },
  {
    "binder": "DOTA-(MC-FA-012)3 (designed binder, each of chains 1-3: N-terminal aminooxy group oxime-ligated to an oxidised serine of the anchor; three disulfides (cystine knot) per chain; anchor carries an N-terminal DOTA chelator, Purchased from Pepscan; about 13000 Da; also called DOTA conjugated trimerized MC-FA-012; MC-FA-012 trimer; not shown: the anchor scaffold (N-terminal DOTA, three Lys-Ser units separated by GSGS linkers)) chain 1: GACPYSNWTPGRGPDCRRDSDCPGRCICRGNGYCG chain 2: GACPYSNWTPGRGPDCRRDSDCPGRCICRGNGYCG chain 3: GACPYSNWTPGRGPDCRRDSDCPGRCICRGNGYCG",
    "outcome-measure": "pKd",
    "endpoint-result": 9.60
  }
]

So, GSGACPYTRWQPGRGPSCRRDSDCPGRCICRGNGYCG (designed binder) [FA8-D05] ? Its pKd was 6.75

Short answer for GSGACPYSRWAVGRGPDCRRDSDCPGRCICRGNGYCG (designed binder) [FA8-D06] : pKd was 6.95

Entry AlexaFluor680-(MC-FA-012)3 (designed binder, not shown: small tags and cut ends, each of chains 1-3: N-terminal aminooxy group oxime-ligated to the anchor; three disulfides (cystine knot) per chain; anchor carries AlexaFluor680 at its N-terminal amine, Purchased from Pepscan; also called AF680-(MC-FA-012)3) chain 1: GACPYSNWTPGRGPDCRRDSDCPGRCICRGNGYCG chain 2: GACPYSNWTPGRGPDCRRDSDCPGRCICRGNGYCG chain 3: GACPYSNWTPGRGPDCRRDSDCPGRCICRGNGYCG ; pKd = 9.17

Noted for GSGACPYTNWRPGRGPACRRDSDCPGRCICRGNGYCG (designed binder) [FA8-C09] : its pKd reads 6.61

The binder GSGACPYSNWAVGRGPSCRRDSDCPGRCICRGNGYCG (designed binder) [FA8-F04] showed pKd equal to 6.48

Form: binder = GSGACPYTNWHPGRGPACRRDSDCPGRCICRGNGYCG (designed binder) [FA8-G12] ; pKd = 6.33

Entry GKCPYSNWTPGRGPDCRRDSDCPGRCICRGNGYCG (designed binder, disulfide (positions not given here), also called soluble monovalent MC-FA-010; solitary MC-FA-010 miniprotein) [MC-FA-010] , pKd reported as 6.97

So, GSGACPYSNWTPGRGPDCSQDSDCLAGCVCGPNGFCG (designed binder) [ET-FA-012] ? Its pKd was 5.34
